The measured values listed here are drawn from PubChem BioAssay (NCATS).

Assay: qHTS for Inhibitors of the Functional Ribonucleoprotein Complex (vRNP) of Lassa (LASV) Arenavirus: Viability assay - alamar blue signal for LASV Primary Screen (AID 1347083); also: nearly all actives have a fitted effect of over 80% in size
Conditions: cell viability, alamar blue fluorescence (LASV minigenome counter-screen); series mostly up to 57.5 µM
Inconclusive results are not listed. Active and inactive are the calls of the source. Calls follow the shape of the full dose curve; tested in HEK293 reporter line.
Tick one outcome: active, inactive

### Prompt // outcome(item) with item = c1ccc2nc(-c3ccc4c(c3)OCO4)ccc2c1
### Response inactive

More entries:
### Prompt What did this assay record as the result for C[C@H](NCc1ccc2c(c1)nc(NC(=O)c1ccc(-c3cn[nH]c3)s1)n2CCc1ccccc1)C(C)(C)C ?
### Response active

### Prompt Per the assay record, what outcome was assigned to OC[C@H]1O[C@@H](n2cnc3c(NC4CCCCC4)ncnc32)[C@H](O)[C@@H]1O ?
### Response inactive

### Prompt Hi, sorry to bother you, what did the test record for CCOC(=O)c1ccccc1N ?
### Response inactive

### Prompt Test call, this molecule: c1cc(N[C@@H]2CCNC2)nc(-c2cnc3ccc(-c4cn[nH]c4)cn23)c1
### Response active

### Prompt # fetch the recorded call for CO[C@H]1[C@@H](O)[C@H](N)[C@@H](O[C@H]2O[C@H]([C@H](C)N)CC[C@H]2N)[C@H](O)[C@@H]1N(C)C(=O)CN here
### Response inactive

### Prompt Please share the test call associated with CN(C)CCCC1(c2ccc(F)cc2)OCc2cc(C#N)ccc21 (stereo not given) .
### Response inactive

### Prompt Dear all, I need the recorded test outcome for CC1=C(O)C(=O)OC1C (stereo not given) , thank you.
### Response inactive

### Prompt So what was the verdict on C[C@@]12CCC3[C@@](CCC4[C@@]3(C)CCC[C@@]4(C)C(=O)O)(CC1=O)C2 (stereo not given in full) in this test?
### Response inactive

### Prompt State the result this test recorded for Cc1cc(Nc2nc(N[C@@H](C)c3ccc(F)cc3)c(C#N)cc2F)n[nH]1 .
### Response active

### Prompt What call does the record list for CCCCCC[C@@H](O)C/C=C\CCCCCCCC(=O)O ?
### Response inactive

====

Test: qHTS for Inhibitors of the Functional Ribonucleoprotein Complex (vRNP) of Lassa (LASV) Arenavirus: LASV Primary Screen - GLuc reporter signal (AID 1347082); also: nearly all actives have a fitted effect of over 60% in size
Conditions: LASV minigenome vRNP, Gaussia luciferase reporter; series mostly up to 57.5 µM
Inconclusive results are not listed. Activity calls are given as the source filed them. The call rests on the fitted dose curve; tested in HEK293 reporter line.
Response enum: y = active, n = inactive

Worked examples, 2 compounds total:
### Prompt Fill in: this test's call for CC1=CC[C@@]23C[C@@H]1C(C)(C)[C@@H]2CC[C@H]3C is ___
### Response n

### Prompt Which outcome was assigned to CC1=CCC[C@H]2[C@H](C1)C(=O)C[C@@H](C)[C@]2(C)CC/C(=C/CO)CO in this test?
### Response n

Further cases:
### Prompt Called result for CC1=C(C(=O)O)N2C(=O)[C@@H](NC(=O)C(N)C3=CCC=CC3)[C@H]2SC1 (some centres not stated)
### Response n

### Prompt // return assay outcome for C[C@@H](O)CCCCn1c(=O)c2c(ncn2C)n(C)c1=O
### Response n

### Prompt Query: recorded result category for Cc1c(CN2CCN(S(C)(=O)=O)CC2)sc2c(N3CCOCC3)nc(-c3cnc(N)nc3)nc12 in this test
### Response y

====

Experiment: qHTS for Inhibitors of the Functional Ribonucleoprotein Complex (vRNP) of Lymphocytic Choriomeningitis Arenaviruses (LCMV): Viability assay - alamar blue signal for LCMV Primary Screen (AID 1347085); also: nearly all actives have a fitted effect of over 80% in size
Settings: alamar blue viability counter-screen, LCMV vRNP screen cells; series mostly up to 57.5 µM
Results filed as inconclusive are left out. Active and inactive are the calls of the source. Calls come from the whole dose curve; tested in HEK293 reporter line.
Permitted responses: y = active, n = inactive

Below are worked cases with known answers.
### Prompt Field: outcome | Entry: C=C1C(=O)[C@@]23C(CC[C@@H]1[C@H]2O)[C@@]12CO[C@]3(O)[C@@H](O)[C@@H]1C(C)(C)CC[C@@H]2O (stereo partly specified)
### Response y

### Prompt Outcome logged for Cc1[nH]c(C=C2C(=O)Nc3ccccc32)c(C)c1CCC(=O)O in this assay:
### Response y

Next:
### Prompt Answer briefly: the call reported for c1ccc2c(Oc3nc(Nc4ccc(N5CCOCC5)cc4)c4ncn(C5CCCCC5)c4n3)cccc2c1 in this assay.
### Response n

### Prompt Record lookup: outcome of this test for NC[C@@H]1O[C@H](C23CC4CC(CC(C4)C2)C3)Cc2c1ccc(O)c2O ?
### Response n

### Prompt Tell me the recorded outcome of this test for CC(C)N(CC[C@H](c1ccccc1)c1cc(CO)ccc1O)C(C)C .
### Response n

### Prompt Dear colleague, could you share the recorded outcome for NC(=Nc1ccccc1)NC(=O)c1nc(Cl)c(N)nc1N when you have a moment?
### Response n

====

For each entry below, report its max response value.
Biological target: Nuclear receptor subfamily 1 group I member 2 (Rattus norvegicus)
Test: qHTS assay for small molecule activators of the rat pregnane X receptor (rPXR) signaling pathway (AID 651751); also: 0% is about no effect
Settings: rPXR reporter cells, luciferase (One-Glo), 24 h
Numbers only, in %.

Please review the following examples before continuing.
### Prompt Suppose we examine the compound CCOP(=S)(OCC)SCSCC ; what max response value has been reported?
### Response 5.3

### Prompt Would you mind telling me what max response value was observed for Oc1ccccc1Cl ?
### Response 0.452

Now look at this one.
### Prompt Item O=Cc1ccccc1 has what recorded max response?
### Response 2.23

====

Assay: Quantitative high throughput screen for delayed death inhibitors of the malarial parasite plastid, 96 hour incubation (AID 488745); also: nearly all actives have a fitted effect of over 70% in size
Details: Plasmodium falciparum growth; series mostly up to 28.7 µM
Records with an inconclusive call do not appear. Calls of active or inactive are those of the source. Calls come from the whole dose curve; as a rule, active = well fitted inhibition curve with a large enough effect; inconclusive = small, poorly fitted or top-dose-only effect, or effect the other way; inactive = no such curve, though single readings can be large or run the other way.
Your answer must be one of the following: class 1 (active), class 0 (inactive)

Reference set (2 entries):
### Prompt Check the results log: what was the call for CN1CCN(c2ccc3ccccc3n2)CC1 ?
### Response class 0

### Prompt Entry CNCC[C@H](Oc1ccc(C(F)(F)F)cc1)c1ccccc1 : call = ?
### Response class 1

Then there is this compound:
### Prompt Field: outcome | Entry: N[C@H](CCCCCP(=O)(O)O)C(=O)O
### Response class 0

====

Assay: qHTS Assay for Lipid Storage Modulators (AID 1519); also: % is scaled to controls: 0 for no effect and ±100 for the full control effect
Settings: Drosophila S3 cells, BODIPY lipid droplet/cell ratio, laser cytometry; at 57.5 µM (top of the series); cells loaded with oleic acid
Records with an inconclusive call do not appear. Active and inactive are the calls of the source. Calls come from the whole dose curve.
measured metric: activity change, negative = inhibition

### Prompt Bench note: what activity change, negative = inhibition did CC(C)(c1ccc(OC[C@@H]2CO2)cc1)c1ccc(OC[C@H]2CO2)cc1 show?
### Response 4.02% (inactive)

Report activity change, negative = inhibition for each item below.
1. CNCCc1cnc[nH]1
2. C[N+](C)(C)CC(=O)[O-]
3. CCN(CC)CCO[C@H]1CC[C@@]2(C)C(=CC[C@@H]3[C@H]2CC[C@]2(C)C(=O)CC[C@H]32)C1
4. O=c1ccc2c(O)c3ccoc3cc2o1
5. CC(C)(C)c1o[nH]c(=O)c1C[C@H](N)C(=O)O
6. COC1C(O)C(C)O[C@@H](OC2CC[C@@]3(C)C4CC[C@]5(C)C(C6=CC(=O)OC6)CC[C@@]5(O)C4CC[C@@H]3C2)C1O (some centres undefined)

### Response
1: 4.08% (inactive); 2: 3.78% (inactive); 3: -3.37% (inactive); 4: 15.3% (inactive); 5: 1.88% (inactive); 6: 8.72% (inactive)

For every record below, what is its activity change, negative = inhibition?
1. Cc1nc(N)sc1CCN
2. NC[C@H](CS(=O)(=O)O)c1ccc(Cl)cc1

### Response
1: 3.05% (inactive); 2: 3.36% (inactive)

====

Biological target: Nucleoprotein (Lymphocytic choriomeningitis virus (strain Armstrong)) (UniProt P09992)
Sequence (P09992 whole entry, looked up): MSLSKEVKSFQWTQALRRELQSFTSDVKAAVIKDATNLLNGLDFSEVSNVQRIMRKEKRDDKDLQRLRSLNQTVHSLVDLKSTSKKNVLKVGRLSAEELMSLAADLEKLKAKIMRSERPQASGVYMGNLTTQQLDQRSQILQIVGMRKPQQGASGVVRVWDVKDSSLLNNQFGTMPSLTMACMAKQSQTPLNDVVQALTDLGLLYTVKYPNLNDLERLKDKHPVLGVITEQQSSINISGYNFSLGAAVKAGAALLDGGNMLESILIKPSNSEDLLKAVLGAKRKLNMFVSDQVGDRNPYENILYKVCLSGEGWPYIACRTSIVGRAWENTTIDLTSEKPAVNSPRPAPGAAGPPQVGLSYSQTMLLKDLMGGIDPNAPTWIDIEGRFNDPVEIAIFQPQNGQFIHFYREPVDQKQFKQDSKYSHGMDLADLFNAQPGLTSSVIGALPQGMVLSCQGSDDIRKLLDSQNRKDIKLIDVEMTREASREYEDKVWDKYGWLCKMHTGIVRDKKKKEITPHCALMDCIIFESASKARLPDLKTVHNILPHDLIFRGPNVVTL
Assay: qHTS for Inhibitors of the Functional Ribonucleoprotein Complex (vRNP) of Lymphocytic Choriomeningitis Arenaviruses (LCMV): LCMV Primary Screen - GLuc reporter signal (AID 1347086); also: nearly all actives have a fitted effect of over 70% in size
Details: LCMV minigenome vRNP cell assay, Gaussia luciferase reporter; series mostly up to 57.5 µM
Inconclusive results are not listed. Calls of active or inactive are those of the source. Calls come from the whole dose curve.
Pick one and only one: y (active), n (inactive)

Completed entries (count: 3):
### Prompt Could you kindly confirm the outcome this assay logged for COc1cc(C)ccc1C(C)C ?
### Response n

### Prompt Check the results log: what was the call for CCCCCCCCCCCC(C)=O ?
### Response n

### Prompt Which outcome was assigned to Cc1cc(Nc2cc(CN3CCOCC3)c3nc(C)c(Cc4ccc(Cl)cc4F)n3n2)n[nH]1 in this test?
### Response n

More entries:
### Prompt Tell me the recorded outcome of this test for CCCCCCCC/C=C/CCCOC(C)=O .
### Response n

### Prompt Hello, I am checking results. What call was entered for CN1CC(CO)=C[C@H]2c3cccc4[nH]cc(c34)C[C@H]21 ?
### Response n

### Prompt Give the logged outcome of this assay for the following compound: CC(=O)CCC1=C(C)CCCC1(C)C
### Response n

### Prompt Recorded test call requested for CC(=O)OC[C@]1(OC(C)=O)C[C@@]23CC[C@H]4[C@@](C)(CCC[C@@]4(C)C(=O)O)[C@@H]2CC[C@@H]1C3
### Response n

### Prompt Dear all, I need the recorded test outcome for Cn1cc(-c2cnn3c(N)c(Br)c([C@H]4CCCNC4)nc23)cn1 , thank you.
### Response y

### Prompt Could you please tell me the result logged for N.N.N.N.N.N.N.N.N.N.N.N.N.N.O.O.[Ru+4].[Ru+5].[Ru+5] in this assay?
### Response n

### Prompt Hi team, can someone confirm the assay call for COc1cc2c(oc(=O)c3cc(C)cc(OC)c32)c2c(C3OC(C)C(O)C(C)(O)C3O)ccc(O)c12 (stereo not drawn) ?
### Response n

### Prompt # outcome recorded in this test, key = CNCC(=O)O
### Response n

### Prompt Could you check what this test reported for Brc1c(Br)c(Br)c2n[nH]nc2c1Br ?
### Response n

### Prompt Hi team, can someone confirm the assay call for COc1n[nH]c2nncnc12 ?
### Response n

### Prompt Outcome logged for N[C@H](CSC(c1ccccc1)(c1ccccc1)c1ccccc1)C(=O)O in this assay:
### Response n

### Prompt Which outcome was entered for the compound NC(=O)c1nnn(Cc2cc(Cl)c(C(=O)c3ccc(Cl)cc3)c(Cl)c2)c1N in this test?
### Response n

### Prompt What outcome does the record of this test show for CO[C@H]1C(=O)[C@]2(C)[C@@H](OC)C[C@H]3OC[C@@]3(OC(C)=O)[C@H]2[C@H](OC(=O)c2ccccc2)[C@]2(O)C[C@H](OC(=O)[C@H](O)[C@@H](NC(=O)OC(C)(C)C)c3ccccc3)C(C)=C1C2(C)C ?
### Response n

### Prompt Check the results log: what was the call for CCCC1OC2C[C@@H]3[C@H]4CCC5=CC(=O)C=C[C@]5(C)[C@H]4C(O)C[C@]3(C)[C@]2(C(=O)CO)O1 (stereo partly drawn) ?
### Response n

### Prompt Assay result, entry COC1C(O)C(CO)OC1n1cnc2c(=O)[nH]c(N)nc21 (stereo not drawn) — outcome?
### Response n
